Target: ABL1 kinase (wild-type) (Homo sapiens)
Construct: The catalytic domains of ABL1 kinases (residues 27 to the C-termini) were N-terminal His tagged; His tag (N); purchased Upstate Cell Signaling Solutions; host or cells: insect cells (baculovirus)
Sequence (P00519 27-1130 limits assumed): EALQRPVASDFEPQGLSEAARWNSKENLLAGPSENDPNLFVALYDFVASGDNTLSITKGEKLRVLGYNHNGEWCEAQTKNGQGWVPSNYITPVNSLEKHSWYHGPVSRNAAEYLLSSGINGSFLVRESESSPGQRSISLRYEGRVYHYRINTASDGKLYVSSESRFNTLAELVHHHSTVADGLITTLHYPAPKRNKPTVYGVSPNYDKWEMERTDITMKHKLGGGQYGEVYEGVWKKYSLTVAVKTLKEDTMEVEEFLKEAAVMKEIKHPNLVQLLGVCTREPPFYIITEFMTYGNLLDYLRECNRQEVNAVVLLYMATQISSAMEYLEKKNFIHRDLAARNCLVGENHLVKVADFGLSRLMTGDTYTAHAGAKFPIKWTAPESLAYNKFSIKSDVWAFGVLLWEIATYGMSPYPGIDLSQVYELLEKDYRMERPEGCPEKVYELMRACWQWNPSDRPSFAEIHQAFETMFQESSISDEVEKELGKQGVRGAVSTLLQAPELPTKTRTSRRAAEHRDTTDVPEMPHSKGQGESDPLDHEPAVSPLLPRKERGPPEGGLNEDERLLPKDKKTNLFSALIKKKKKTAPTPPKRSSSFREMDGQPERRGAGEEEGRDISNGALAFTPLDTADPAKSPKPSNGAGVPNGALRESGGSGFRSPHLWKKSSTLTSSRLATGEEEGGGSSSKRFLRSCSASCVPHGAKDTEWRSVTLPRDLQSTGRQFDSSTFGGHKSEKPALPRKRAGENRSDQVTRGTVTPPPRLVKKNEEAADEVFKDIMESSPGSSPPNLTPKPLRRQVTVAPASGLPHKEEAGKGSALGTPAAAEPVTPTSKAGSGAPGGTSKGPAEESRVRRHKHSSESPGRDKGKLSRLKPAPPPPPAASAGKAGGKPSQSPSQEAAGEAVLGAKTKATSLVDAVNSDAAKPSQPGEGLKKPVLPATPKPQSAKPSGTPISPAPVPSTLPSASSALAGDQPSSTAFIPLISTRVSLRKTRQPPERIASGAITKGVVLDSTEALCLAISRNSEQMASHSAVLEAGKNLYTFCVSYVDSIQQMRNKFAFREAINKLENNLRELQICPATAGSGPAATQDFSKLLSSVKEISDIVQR
Experiment: ABL1 HTRF assay (wild-type)
Assay type: biochemical
Details: 35 μM ATP; read-out: EXAMPLE G WT Abl IC50
pIC50: −log10 of the molar value.

compound	pIC50
Cc1ccc(NC(=O)c2cc(N3CCN(C)CC3)cc(C(F)(F)F)c2)cc1-c1ccc2c(c1)[nH]c1ncncc12 [Example 26, bis(trifluoroacetate)]	> 6.70
Cc1ccc(NC(=O)c2cccc(C(F)(F)F)c2)cc1-c1ccc2[nH]c3ncncc3c2c1 [Example 40]	> 6.70

###

Biological target: human JAK3 (a.a. 781-1124) (Homo sapiens, UniProt P52333)
Sequence (P52333 781-1124): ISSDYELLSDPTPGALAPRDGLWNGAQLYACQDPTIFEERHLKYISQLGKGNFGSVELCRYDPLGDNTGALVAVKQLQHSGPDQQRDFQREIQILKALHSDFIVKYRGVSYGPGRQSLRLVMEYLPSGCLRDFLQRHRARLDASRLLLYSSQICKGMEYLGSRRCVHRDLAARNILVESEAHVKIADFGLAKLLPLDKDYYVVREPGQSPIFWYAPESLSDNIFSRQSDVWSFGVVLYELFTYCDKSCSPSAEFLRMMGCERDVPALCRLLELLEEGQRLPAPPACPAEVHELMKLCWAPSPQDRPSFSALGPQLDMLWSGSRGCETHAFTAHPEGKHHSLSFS
pIC50: −log10 of the molar value. Structures can show the parent of a compound that is named as a salt.

molecule	pIC50
Cc1ccc(C(=O)Nc2cccc(C(F)(F)F)c2)cc1-c1ccc2c(c1)[nH]c1ncncc12	≥ 6.30
Cc1ccc(C(=O)Nc2cccc(C(F)(F)F)c2)cc1-c1ccc2c(c1)[nH]c1ncccc12 [Example 68, trifluoroacetate salt]	≥ 6.30
COc1cccc(C(=O)Nc2ccc(C)c(-c3ccc4c(c3)[nH]c3ncncc34)c2)c1	≥ 6.30
Cc1ccc(NC(=O)c2cc(N3CCOCC3)cc(C(F)(F)F)c2)cc1-c1ccc2c(c1)[nH]c1ncncc12	≥ 6.30
Cc1ccc(NC(=O)c2cccc(C(F)(F)F)c2)cc1-c1ccc2c(c1)[nH]c1nc(N)ncc12 [Example 67, trifluoroacetate]	≥ 6.30
Cc1ncc(NC(=O)c2cc(-n3cnc(C=O)c3)cc(C(F)(F)F)c2)cc1-c1ccc2c(c1)[nH]c1ncncc12 [Example 74, bis(trifluoroacetate)]	≥ 6.30
Cc1ccc(NC(=O)c2cc(N3CCNCC3)cc(C(F)(F)F)c2)cc1-c1ccc2c(c1)[nH]c1ncncc12	≥ 6.30
Cc1ccc(NC(=O)c2cc(N3CCN(C)CC3)cc(C(F)(F)F)c2)cc1-c1ccc2c(c1)[nH]c1ncncc12 [Example 26, bis(trifluoroacetate)]	≥ 6.30
O=C(Nc1cccc(C(F)(F)F)c1)c1cccc(-c2ccc3c(c2)[nH]c2ncncc23)c1	< 6.00
Cc1ccc(NC(=O)c2cc(C(F)(F)F)ccc2F)cc1-c1ccc2c(c1)[nH]c1ncncc12	≥ 6.30
Cc1ccc(NC(=O)c2cc(NCCCn3ccnc3)cc(C(F)(F)F)c2)cc1-c1ccc2c(c1)[nH]c1ncncc12	≥ 6.30
Cc1ncc(NC(=O)c2cc(NCCCN(C)C)cc(C(F)(F)F)c2)cc1-c1ccc2c(c1)[nH]c1ncncc12 [Example 77, tris(trifluoroacetate)]	≥ 6.30
Cc1ccc(NC(=O)c2cc(N3CCC(O)CC3)cc(C(F)(F)F)c2)cc1-c1ccc2c(c1)[nH]c1ncncc12	≥ 6.30
Cc1cn(-c2cc(C(=O)Nc3ccc(C)c(-c4ccc5c(c4)[nH]c4ncncc45)c3)cc(C(F)(F)F)c2)cn1 [Example 2, bis(trifluoroacetate)]	≥ 6.30
Cc1ncc(NC(=O)c2cc(NCCN(C)C)cc(C(F)(F)F)c2)cc1-c1ccc2c(c1)[nH]c1ncncc12 [Example 76, tris(trifluoroacetate)]	≥ 6.30
Cc1ccc(NC(=O)c2cc(N3CCC(N(C)C)C3)cc(C(F)(F)F)c2)cc1-c1ccc2c(c1)[nH]c1ncncc12 (stereo not drawn)	≥ 6.30
O=C(Nc1cccc(-c2ccc3c(c2)[nH]c2ncncc23)c1)c1cccc(C(F)(F)F)c1	< 6.00
Cc1cnc(NC(=O)c2ccc(C)c(-c3ccc4c(c3)[nH]c3ncncc34)c2)s1	< 6.00
O=C(Nc1ccc(Cl)c(-c2ccc3c(c2)[nH]c2ncncc23)c1)c1cccc(C(F)(F)F)c1	≥ 6.30
Cc1ccc(NC(=O)c2cc(-n3cnc(C=O)c3)cc(C(F)(F)F)c2)cc1-c1ccc2c(c1)[nH]c1ncncc12 [Example 20, trifluoroacetate]	≥ 6.30
N#Cc1ccc(C(=O)Nc2cccc(C(F)(F)F)c2)cc1-c1ccc2c(c1)[nH]c1ncncc12	< 6.00
Cc1ccc(C(=O)Nc2cccc(S(F)(F)(F)(F)F)c2)cc1-c1ccc2c(c1)[nH]c1ncncc12	≥ 6.30
Cc1ncc(NC(=O)c2cc(-n3ccnc3)cc(C(F)(F)F)c2)cc1-c1ccc2c(c1)[nH]c1ncncc12 [Example 72, tris(trifluoroacetate)]	≥ 6.30
Cc1ccc(NC(=O)c2cccc(C(F)(F)F)c2)cc1-c1ccc2c(c1)[nH]c1ncncc12 [Example 1, trifluoroacetate]	≥ 6.30

Ref: patent US8513270B2
